# Setup conditions: in acetonitrile, 298.15 K
Readout: solubility (mole fraction)
Field format: numeric only.

Query: Give solubility (mole fraction) for Cc1onc(-c2c(Cl)cccc2Cl)c1C(=O)N[C@@H]1C(=O)N2[C@@H]1SC(C)(C)[C@@H]2C(=O)[O-].O.[Na+]
Reply: 0.000174

---

# Setup conditions: in acetonitrile, 293.15 K
Readout: solubility (mole fraction)
Field format: numeric only.

Query: Give solubility (mole fraction) for Cc1onc(-c2c(Cl)cccc2Cl)c1C(=O)N[C@@H]1C(=O)N2[C@@H]1SC(C)(C)[C@@H]2C(=O)[O-].O.[Na+]
Reply: 0.000155

---

# Setup conditions: in methanol, 308.15 K
Readout: solubility (mole fraction)

Query: Give solubility (mole fraction) for Cc1onc(-c2c(Cl)cccc2Cl)c1C(=O)N[C@@H]1C(=O)N2[C@@H]1SC(C)(C)[C@@H]2C(=O)[O-].O.[Na+]
Reply: 0.0657

---

# Setup conditions: in acetone, 308.15 K
Readout: solubility (mole fraction)
Field format: numeric only.

Query: Give solubility (mole fraction) for Cc1onc(-c2c(Cl)cccc2Cl)c1C(=O)N[C@@H]1C(=O)N2[C@@H]1SC(C)(C)[C@@H]2C(=O)[O-].O.[Na+]
Reply: 0.00161

---

# Setup conditions: in ethanol, 318.15 K
Readout: solubility (mole fraction)

Query: Give solubility (mole fraction) for Cc1onc(-c2c(Cl)cccc2Cl)c1C(=O)N[C@@H]1C(=O)N2[C@@H]1SC(C)(C)[C@@H]2C(=O)[O-].O.[Na+]
Reply: 0.00292

---

# Setup conditions: in isopropanol, 293.15 K
Readout: solubility (mole fraction)
Field format: numeric only.

Query: Give solubility (mole fraction) for Cc1onc(-c2c(Cl)cccc2Cl)c1C(=O)N[C@@H]1C(=O)N2[C@@H]1SC(C)(C)[C@@H]2C(=O)[O-].O.[Na+]
Reply: 0.000524

---

# Setup conditions: in acetone, 288.15 K
Readout: solubility (mole fraction)

Query: Give solubility (mole fraction) for Cc1onc(-c2c(Cl)cccc2Cl)c1C(=O)N[C@@H]1C(=O)N2[C@@H]1SC(C)(C)[C@@H]2C(=O)[O-].O.[Na+]
Reply: 0.000605

---

# Setup conditions: in ethanol, 313.15 K
Readout: solubility (mole fraction)
Field format: numeric only.

Query: Give solubility (mole fraction) for Cc1onc(-c2c(Cl)cccc2Cl)c1C(=O)N[C@@H]1C(=O)N2[C@@H]1SC(C)(C)[C@@H]2C(=O)[O-].O.[Na+]
Reply: 0.00267

---

# Setup conditions: in acetone, 313.15 K
Readout: solubility (mole fraction)
Field format: numeric only.

Query: Give solubility (mole fraction) for Cc1onc(-c2c(Cl)cccc2Cl)c1C(=O)N[C@@H]1C(=O)N2[C@@H]1SC(C)(C)[C@@H]2C(=O)[O-].O.[Na+]
Reply: 0.00198

---

# Setup conditions: in ethanol, 293.15 K
Readout: solubility (mole fraction)
Field format: numeric only.

Query: Give solubility (mole fraction) for Cc1onc(-c2c(Cl)cccc2Cl)c1C(=O)N[C@@H]1C(=O)N2[C@@H]1SC(C)(C)[C@@H]2C(=O)[O-].O.[Na+]
Reply: 0.00167

---

# Setup conditions: in ethyl acetate, 298.15 K
Readout: solubility (mole fraction)
Field format: numeric only.

Query: Give solubility (mole fraction) for Cc1onc(-c2c(Cl)cccc2Cl)c1C(=O)N[C@@H]1C(=O)N2[C@@H]1SC(C)(C)[C@@H]2C(=O)[O-].O.[Na+]
Reply: 0.000843
